I'd appreciate it if you could supply IC50 values for the items below.
system-name: HLA-DRB1*01:01 (Homo sapiens, UniProt P01903+P01911, A100R/D57E/F55L/F60I/F76Y/I96L/L162R/M171V/P40L/Q125E/R42F/V115G/Y59C)
experiment-notes: Competition peptide-binding assay, HLA-DRB1*01:01
condition-description: competition with 0.02 μM biotinylated HA306–318, plate-bound HLA-DRB1*01:01, increasing peptide concentrations; read-out: IC50 *01:01
Square brackets hold non-standard residues; d marks the D form. Peptide text beside a SMILES is read from it. Cit = NC(=O)NCCC[C@H](N)C(=O)O
# value in µM; strip the unit string

Problem: Please give the measured IC50 for this molecule: CC[C@H](C)[C@H](NC(=O)[C@@H](N)C(C)C)C(=O)NCC(=O)N[C@@H](CCSC)C(=O)N[C@@H](CC(=O)O)C(=O)N[C@H](C(=O)N[C@@H](C)C(=O)N[C@@H](C)C(=O)N[C@@H](CO)C(=O)N[C@@H](CCC(=O)O)C(=O)N[C@@H](Cc1ccccc1)C(=O)N[C@@H](Cc1ccccc1)C(=O)N[C@@H](CCCNC(N)=O)C(=O)N[C@@H](CO)C(=O)NCC(=O)O)C(C)C [cit241] (H-VIGMDVAASEFF[Cit]SG-OH)
Solution: 42

Problem: And for CC(C)C[C@H](NC(=O)CNC(=O)[C@H](CCCCN)NC(=O)[C@H](CO)NC(=O)[C@@H](N)[C@@H](C)O)C(=O)N[C@@H](Cc1ccccc1)C(=O)N[C@@H](CCCNC(N)=O)C(=O)N[C@@H](C)C(=O)N[C@@H](C)C(=O)N[C@H](C(=O)N1CCC[C@H]1C(=O)N[C@@H](CO)C(=O)NCC(=O)N[C@@H](C)C(=O)N[C@@H](CO)C(=O)O)C(C)C [cit26] (H-TSKGLF[Cit]AAVPSGAS-OH) ?
Solution: 1.9

Problem: What do we get for CC(C)C[C@H](NC(=O)CNC(=O)[C@H](CCCCN)NC(=O)[C@H](CO)NC(=O)[C@@H](N)[C@@H](C)O)C(=O)N[C@@H](Cc1ccccc1)C(=O)N[C@@H](CCCNC(=N)N)C(=O)N[C@@H](C)C(=O)N[C@@H](C)C(=O)N[C@H](C(=O)N1CCC[C@H]1C(=O)N[C@@H](CO)C(=O)NCC(=O)N[C@@H](C)C(=O)N[C@@H](CO)C(=O)O)C(C)C [peptide 26] (H-TSKGLFRAAVPSGAS-OH) ?
Solution: 1.4

Problem: Please answer likewise for CC[C@H](C)[C@H](NC(=O)[C@H](CCCCN)NC(=O)[C@H](CC(C)C)NC(=O)[C@@H](NC(=O)[C@H](CO)NC(=O)[C@@H](N)CCSC)[C@@H](C)CC)C(=O)N[C@@H](Cc1c[nH]cn1)C(=O)N[C@@H](C)C(=O)N[C@@H](CCCNC(=N)N)C(=O)N[C@@H](CCC(=O)O)C(=O)N[C@H](C(=O)N[C@@H](Cc1ccccc1)C(=O)N[C@@H](CC(=O)O)C(=O)N[C@@H](CO)C(=O)N[C@@H](CCCNC(=N)N)C(=O)O)[C@@H](C)CC [peptide 1] (H-MSILKIHAREIFDSR-OH)
Solution: 3.5

* * *

Could you please report measured IC50 for the items listed next?
system-name: HLA-DRB1*04:01 (Homo sapiens, UniProt P01903+P01911, A100K/A169T/F76Y/I96L/K127E/L162R/M171V/N62H/P40V/Q125Y/R42H/S133A/S149N/S66Y/V115G/V209L/W38E)
experiment-notes: biochemical
Square brackets hold non-standard residues; d marks the D form. Peptide text beside a SMILES is read from it. Cit = NC(=O)NCCC[C@H](N)C(=O)O

Problem: Return reported IC50; argument: CC[C@H](C)[C@H](NC(=O)[C@@H](N)C(C)C)C(=O)NCC(=O)N[C@@H](CCSC)C(=O)N[C@@H](CC(=O)O)C(=O)N[C@H](C(=O)N[C@@H](C)C(=O)N[C@@H](C)C(=O)N[C@@H](CO)C(=O)N[C@@H](CCC(=O)O)C(=O)N[C@@H](Cc1ccccc1)C(=O)N[C@@H](Cc1ccccc1)C(=O)N[C@@H](CCCNC(=N)N)C(=O)N[C@@H](CO)C(=O)NCC(=O)O)C(C)C [compound 241] (H-VIGMDVAASEFFRSG-OH)
Solution: 2 µM

Problem: // next record CC(C)C[C@H](NC(=O)CNC(=O)[C@H](CCCCN)NC(=O)[C@H](CO)NC(=O)[C@@H](N)[C@@H](C)O)C(=O)N[C@@H](Cc1ccccc1)C(=O)N[C@@H](CCCNC(=N)N)C(=O)N[C@@H](C)C(=O)N[C@@H](C)C(=O)N[C@H](C(=O)N1CCC[C@H]1C(=O)N[C@@H](CO)C(=O)NCC(=O)N[C@@H](C)C(=O)N[C@@H](CO)C(=O)O)C(C)C [peptide 26] (H-TSKGLFRAAVPSGAS-OH)
Solution: 4 µM

Problem: Would you mind doing CC(C)C[C@H](NC(=O)CNC(=O)[C@H](CCCCN)NC(=O)[C@H](CO)NC(=O)[C@@H](N)[C@@H](C)O)C(=O)N[C@@H](Cc1ccccc1)C(=O)N[C@@H](CCCNC(N)=O)C(=O)N[C@@H](C)C(=O)N[C@@H](C)C(=O)N[C@H](C(=O)N1CCC[C@H]1C(=O)N[C@@H](CO)C(=O)NCC(=O)N[C@@H](C)C(=O)N[C@@H](CO)C(=O)O)C(C)C [cit26] (H-TSKGLF[Cit]AAVPSGAS-OH) as well?
Solution: 1.5 µM

Problem: Same read-out for CC(C)C[C@H](NC(=O)[C@@H]1CCCN1C(=O)[C@H](CC(N)=O)NC(=O)[C@H](CCCNC(=N)N)NC(=O)[C@H](Cc1ccccc1)NC(=O)[C@H](CC(N)=O)NC(=O)[C@H](CCCNC(=N)N)NC(=O)CNC(=O)[C@H](C)NC(=O)[C@H](Cc1ccccc1)NC(=O)[C@H](CCCCN)NC(=O)[C@H](C)NC(=O)[C@@H](N)CCCCN)C(=O)N[C@@H](C)C(=O)N[C@@H](CCCCN)C(=O)O [peptide 420] (H-KAKFAGRNFRNPLAK-OH) ?
Solution: > 50 µM

Problem: Now this one: CC[C@H](C)[C@H](NC(=O)[C@@H](N)C(C)C)C(=O)NCC(=O)N[C@@H](CCSC)C(=O)N[C@@H](CC(=O)O)C(=O)N[C@H](C(=O)N[C@@H](C)C(=O)N[C@@H](C)C(=O)N[C@@H](CO)C(=O)N[C@@H](CCC(=O)O)C(=O)N[C@@H](Cc1ccccc1)C(=O)N[C@@H](Cc1ccccc1)C(=O)N[C@@H](CCCNC(N)=O)C(=O)N[C@@H](CO)C(=O)NCC(=O)O)C(C)C [cit241] (H-VIGMDVAASEFF[Cit]SG-OH)
Solution: 2.5 µM

* * *

system-name: HLA-DRB1*04:04 (Homo sapiens, UniProt P01903+P01911, A100R/A169T/F76Y/I96L/K127E/L162R/M171V/N62H/P40V/Q125Y/R42H/S133A/S149N/S66Y/V209L/W38E)
experiment-notes: Competition peptide-binding assay, HLA-DRB1*04:04
condition-description: competition with 0.02 μM biotinylated GAD65 270–285, plate-bound HLA-DRB1*04:04, increasing peptide concentrations; read-out: IC50 *04:04
Square brackets hold non-standard residues; d marks the D form. Peptide text beside a SMILES is read from it. Cit = NC(=O)NCCC[C@H](N)C(=O)O
reported-metric: pIC50
Field pIC50 (float): negative decimal logarithm of the concentration in molar.

Problem: Please look up its pIC50: CC(C)C[C@H](NC(=O)[C@@H]1CCCN1C(=O)[C@H](CC(N)=O)NC(=O)[C@H](CCCNC(=N)N)NC(=O)[C@H](Cc1ccccc1)NC(=O)[C@H](CC(N)=O)NC(=O)[C@H](CCCNC(=N)N)NC(=O)CNC(=O)[C@H](C)NC(=O)[C@H](Cc1ccccc1)NC(=O)[C@H](CCCCN)NC(=O)[C@H](C)NC(=O)[C@@H](N)CCCCN)C(=O)N[C@@H](C)C(=O)N[C@@H](CCCCN)C(=O)O [peptide 420] (H-KAKFAGRNFRNPLAK-OH)
Solution: 4.60

Problem: Okay, and CC(C)C[C@H](NC(=O)CNC(=O)[C@H](CCCCN)NC(=O)[C@H](CO)NC(=O)[C@@H](N)[C@@H](C)O)C(=O)N[C@@H](Cc1ccccc1)C(=O)N[C@@H](CCCNC(N)=O)C(=O)N[C@@H](C)C(=O)N[C@@H](C)C(=O)N[C@H](C(=O)N1CCC[C@H]1C(=O)N[C@@H](CO)C(=O)NCC(=O)N[C@@H](C)C(=O)N[C@@H](CO)C(=O)O)C(C)C [cit26] (H-TSKGLF[Cit]AAVPSGAS-OH) ?
Solution: 6.30

Problem: Please give the result for CC[C@H](C)[C@H](NC(=O)[C@@H](N)C(C)C)C(=O)NCC(=O)N[C@@H](CCSC)C(=O)N[C@@H](CC(=O)O)C(=O)N[C@H](C(=O)N[C@@H](C)C(=O)N[C@@H](C)C(=O)N[C@@H](CO)C(=O)N[C@@H](CCC(=O)O)C(=O)N[C@@H](Cc1ccccc1)C(=O)N[C@@H](Cc1ccccc1)C(=O)N[C@@H](CCCNC(=N)N)C(=O)N[C@@H](CO)C(=O)NCC(=O)O)C(C)C [compound 241] (H-VIGMDVAASEFFRSG-OH) too.
Solution: 6.30

Problem: Also check CC[C@H](C)[C@H](NC(=O)[C@@H](N)C(C)C)C(=O)NCC(=O)N[C@@H](CCSC)C(=O)N[C@@H](CC(=O)O)C(=O)N[C@H](C(=O)N[C@@H](C)C(=O)N[C@@H](C)C(=O)N[C@@H](CO)C(=O)N[C@@H](CCC(=O)O)C(=O)N[C@@H](Cc1ccccc1)C(=O)N[C@@H](Cc1ccccc1)C(=O)N[C@@H](CCCNC(N)=O)C(=O)N[C@@H](CO)C(=O)NCC(=O)O)C(C)C [cit241] (H-VIGMDVAASEFF[Cit]SG-OH)
Solution: 6.70

Problem: Another compound: CC[C@H](C)[C@H](NC(=O)[C@H](CCCNC(N)=O)NC(=O)[C@@H](N)CCCCN)C(=O)N[C@@H](C)C(=O)N[C@@H](CCCCN)C(=O)N[C@@H](C)C(=O)N[C@H](C(=O)N[C@@H](CC(N)=O)C(=O)N[C@@H](CCC(=O)O)C(=O)N[C@@H](CCCCN)C(=O)N[C@@H](CO)C(=O)N[C@@H](CS)C(=O)N[C@@H](CC(N)=O)C(=O)N[C@@H](CS)C(=O)N[C@@H](CC(C)C)C(=O)O)C(C)C [cit326] (H-K[Cit]IAKAVNEKSCNCL-OH)
Solution: 6.15
